Tested on: NCI-H226
Test: NCI tumour cell line growth inhibition, 48 h
Calls of active or inactive are those of the source. No stated cut-off is given here; in the data, active = GI50 up to about 1.1 µM and inactive = higher.

- molecule: "NS(=O)(=O)OCCCCCCCOS(N)(=O)=O"
  target: "NCI-H226"
  GI50: "292 µM (inactive)"
- molecule: "Cc1c(/C=N/NC(=S)Nc2ccc(Cl)cc2)c(=O)n(-c2ccccc2)n1C"
  target: "NCI-H226"
  GI50: "18.7 µM (inactive)"
- molecule: "CC1(C)[C@@H](Cn2cc(I)c(=O)[nH]c2=O)CC[C@@]1(C)CO"
  target: "NCI-H226"
  GI50: "> 100 µM (inactive)"
- molecule: "CC(C)(C)C1CCC(CI)(N=[N+]=[N-])CC1 (configuration not stated)"
  target: "NCI-H226"
  GI50: "> 100 µM (inactive)"
- molecule: "COc1cc(-c2oc3c(OC)c(O)c(OC)c(O)c3c(=O)c2OC)ccc1O"
  target: "NCI-H226"
  GI50: "34.9 µM (inactive)"
- molecule: "CCCN(CCCC(NC(C)=O)C(=O)NCc1ccccc1)C(=O)NCCCl (configuration not stated)"
  target: "NCI-H226"
  GI50: "> 100 µM (inactive)"
- molecule: "C=C1c2nc3ccccc3n2C=C(c2ccc(C)cc2)N1c1ccccc1"
  target: "NCI-H226"
  GI50: "2.43 µM (inactive)"
- molecule: "NNc1nc2ccccc2c(=O)n1NC(=O)C(=O)Nc1cccc(C(F)(F)F)c1"
  target: "NCI-H226"
  GI50: "> 100 µM (inactive)"
- molecule: "NC(CSC(c1ccccc1)(c1ccccc1)c1ccccc1)C(=O)O (configuration not stated)"
  target: "NCI-H226"
  GI50: "3.59 µM (inactive)"
- molecule: "COc1ccccc1/C=C(\\NC(=O)c1ccccc1)c1nc2ccc(Cl)cc2[nH]1"
  target: "NCI-H226"
  GI50: "23.3 µM (inactive)"
- molecule: "[O-][n+]1c2cc(CBr)c(CBr)cc2[n+]([O-])c2c(O)cccc21"
  target: "NCI-H226"
  GI50: "6.61 µM (inactive)"
- molecule: "N/C(=N\\c1ccccc1)c1ccccc1N"
  target: "NCI-H226"
  GI50: "> 100 µM (inactive)"
- molecule: "COC(=O)C(COC(=O)/C=C/c1ccc(OC(C)=O)c(OC(C)=O)c1)NC(=O)/C=C/c1ccc(OC(C)=O)c(OC(C)=O)c1 (configuration not stated)"
  target: "NCI-H226"
  GI50: "36.2 µM (inactive)"
- molecule: "CC(NC(=O)c1ccccc1)NC(=O)C(C)C(=O)Nc1ccccc1 (configuration not stated)"
  target: "NCI-H226"
  GI50: "89.5 µM (inactive)"
- molecule: "O=C(CCCCCCC(=O)Nc1cccnc1)NO [PYROXAMIDE]"
  target: "NCI-H226"
  GI50: "36.3 µM (inactive)"
- molecule: "CC(=O)Oc1cc2c(cc1OC(C)=O)OCC(c1ccc(C)cc1)C2 (configuration not stated)"
  target: "NCI-H226"
  GI50: "27.1 µM (inactive)"
- molecule: "CCN(CC)P(=O)(c1ccc2c(c1)OCCOCCOCCOCCO2)N(CC)CC"
  target: "NCI-H226"
  GI50: "> 100 µM (inactive)"
- molecule: "O=C1/C(=C\\c2ccccc2)c2ccccc2N1/N=C\\c1ccccc1"
  target: "NCI-H226"
  GI50: "> 100 µM (inactive)"
- molecule: "N=C(N)SCc1cccc([N+](=O)[O-])c1"
  target: "NCI-H226"
  GI50: "24.3 µM (inactive)"
- molecule: "COc1cc(/C=C(\\C#N)C(=O)c2ccccc2)ccc1O"
  target: "NCI-H226"
  GI50: "> 100 µM (inactive)"
- molecule: "O=C1/C(=C/c2ccc3c(c2)CCC3)Cc2cc3c(cc21)CCC3"
  target: "NCI-H226"
  GI50: "> 100 µM (inactive)"
- molecule: "CCOC(=O)C1C(=O)c2cccc(OC)c2C2COC(=O)N12 (configuration not stated)"
  target: "NCI-H226"
  GI50: "> 100 µM (inactive)"
